# Test system: SK-MEL-28
# Measurement Notes: NCI tumour cell line growth inhibition, 48 h
The source made the active and inactive calls. Cut-off read from the data, not from the text of the source: active = GI50 up to about 1.1 µM and inactive = higher.
Please provide measured GI50 for the entries that follow.

Fill: GI50 (SK-MEL-28) for this molecule `Cc1cc2c(cc1C)[n+]([O-])c(C(=O)CC(=O)C(=O)Nc1c(C(C)C)cccc1C(C)C)c(C)[n+]2[O-]`
> 100 µM (inactive)

Report GI50 from SK-MEL-28 testing of `CCc1c[n+]2c(cc1C1=CN3c4ccccc4[C@]45CCN6C/C(=C/CO)[C@H](C[C@H]64)[C@@H]([C@@H]1O)[C@H]35)-c1[nH]c3ccccc3c1CC2`
> 50 µM (inactive)

// fetch GI50; item: `Cn1c2c([N+](=O)[O-])[se]nc2c(=O)n1-c1ccc([N+](=O)[O-])cc1` ; system: SK-MEL-28
2.11 µM (inactive)

Please report GI50 with SK-MEL-28 for item O=C1Nc2cc(Cl)ccc2N=CC1NC(=O)C(c1ccccc1)c1ccccc1Cl (centres undefined) .
> 100 µM (inactive)

Give the observed GI50 of `CN(C)CCNC(=O)c1cccc2nc3c(ccc4ccccc43)nc12` for SK-MEL-28.
2.05 µM (inactive)

Report value: GI50, system: SK-MEL-28, molecule: `Cc1ncc([N+](=O)[O-])n1CCNS(=O)(=O)CCCn1ncnc1[N+](=O)[O-]`
> 100 µM (inactive)

Write GI50 of `C[C@@]12CC[C@H]3[C@@H]4CCC(=O)N[C@@]4(C)CC[C@@H]3[C@@]1(C)CC[C@H](OC(=O)Cc1ccc(N(CCCl)CCCl)cc1)C2` ; system used: SK-MEL-28
18.4 µM (inactive)

GET GI50 where system = SK-MEL-28 and item = `O=C(Cn1ccnc1[N+](=O)[O-])NCc1ccc(F)cc1`
> 100 µM (inactive)

Please look at `CP1(=O)CCCCC1` and tell me its recorded GI50 on SK-MEL-28.
> 100 µM (inactive)
